test system: nutrient protein (lysine); assay: Effect of pH variation on protein glycation, in vitro, spectrophotometer; details: pH 8
Measure Name: Absorbance at different pH values
Give the figure only, with no unit attached.

Solved cases below.
In [3]: df
Out[3]:
                                   compound  observed_result
0  OC[C@H]1O[C@@H](O[C@H]2[C@H](O)[C@@H](O)C(O)O[C@@H]2CO)[C@H](O)[C@@H](O)[C@H]1O (stereo partly shown)             0.17
1             O=C[C@H](O)[C@H](O)[C@H](O)CO             0.59
2  OC[C@H]1O[C@H](O[C@H]2[C@H](O)[C@@H](O)[C@H](O)O[C@@H]2CO)[C@H](O)[C@@H](O)[C@@H]1O             0.22

Asked: Name the recorded Absorbance at different pH values for `O=C(CO)[C@@H](O)[C@H](O)[C@H](O)CO` .
Given back: 0.5
